system: HepG2-GM130-SQSTM1; assay: phenotypically active (imaging signature differs from DMSO and reproducible) at any of 0.3-9 uM (binary (1 = active, 0 = inactive)); higher = active; conditions: treatment time: 24 h
Hi there, use one of these labels in your reply, thanks! yes = active, no = inactive

| molecule | testTarget | categoryLabel |
| --- | --- | --- |
| CC(C)C(=O)Nc1ccc([N+](=O)[O-])c(C(F)(F)F)c1 [flutamide] | HepG2-GM130-SQSTM1 | no |
| CC(C)[N+](C)(CCOC(=O)C1c2ccccc2Oc2ccccc21)C(C)C | HepG2-GM130-SQSTM1 | no |
| COc1cc2c(NC3CCN(C)CC3)nc(N3CCCN(C)CC3)nc2cc1OCCCN(C)C | HepG2-GM130-SQSTM1 | no |
| C#C[C@]1(O)CC[C@H]2[C@@H]3CCC4=Cc5oncc5C[C@]4(C)[C@H]3CC[C@@]21C | HepG2-GM130-SQSTM1 | no |
| O=C(Nc1ccncc1)c1cc([N+](=O)[O-])ccc1Cl | HepG2-GM130-SQSTM1 | yes |
| CNCC[C@@H](Oc1ccccc1C)c1ccccc1 | HepG2-GM130-SQSTM1 | no |
| CNC(=O)Nc1ccc(-c2nc(N3CC4CCC(C3)O4)c3cnn(C4CCC5(CC4)OCCO5)c3n2)cc1 | HepG2-GM130-SQSTM1 | yes |
| C=C[C@H]1C[N@@]2CC[C@H]1C[C@@H]2[C@@H](O)c1ccnc2ccc(OC)cc12 | HepG2-GM130-SQSTM1 | no |
| O=C(O)c1cc(/N=N/c2ccc(O)c(C(=O)O)c2)ccc1O | HepG2-GM130-SQSTM1 | no |
| C#CCN[C@@H]1CCc2ccccc21 | HepG2-GM130-SQSTM1 | no |

Q: Which result was noted for this molecule in the test: CN1CCN(C2=Nc3cc(Cl)ccc3Nc3ccccc32)CC1
A: no

Q: Param item: COc1ccc(CN(CCN(C)C)c2ccccn2)cc1
A: no

Q: What do you have for CC(C)(C)c1nc(-c2cccc(NS(=O)(=O)c3c(F)cccc3F)c2F)c(-c2ccnc(N)n2)s1 ?
A: yes

###

tested on: HepG2-TP53BP1-CLTA; assay: phenotypically active (imaging signature differs from DMSO and reproducible) at any of 0.3-9 uM (binary (1 = active, 0 = inactive)); higher = active; conditions: treatment time: 24 h
Answer with one of the outcomes label 1 = active, label 0 = inactive

Solved entries (count: 4):
| molecule | categoryLabel |
| --- | --- |
| Nc1nc(S)c2[nH]cnc2n1 [thioguanine] | label 1 |
| Cc1c(C(=O)N2CCOc3ccc(-c4ccc(N)nc4)cc3C2)ccc(S(C)(=O)=O)c1F | label 1 |
| Cn1cnc([N+](=O)[O-])c1Sc1ncnc2nc[nH]c12 [azathioprine] | label 0 |
| CCOC(=O)C(C)(C)Oc1ccc(Cl)cc1 [Clofibrate] | label 0 |

Q: Recorded test call requested for COc1ccc(CNC(=O)Nc2ncc([N+](=O)[O-])s2)cc1
A: label 0

Q: Do the same for COc1c(OC2OC(CO)[C@@H](O)[C@H](O)[C@H]2O)cc2c(c1OC)-c1ccc(OC)c(=O)cc1[C@@H](NC(C)=O)CC2 (some centres not stated) [Colchicoside] please
A: label 0

Q: Further, for O=C(Nc1cccnc1)c1cc(-c2ccnc(F)c2)ccc1OCc1ccccc1 ?
A: label 0
